biological target: CBL-B (Homo sapiens, UniProt Q13191); construct: GST; experiment: CBL-B TR-FRET IC50 screening (E1/E2 ubiquitination, Biotin-Ubiquitin, Anti GST-Tb donor / Streptavidin-d2 acceptor); type: biochemical; conditions: CBL-B 10 nM final; 11-point titration from 100 uM; binned A-F; read-out: CBL-B TR-FRET activity IC50
Sequence (Q13191 whole entry): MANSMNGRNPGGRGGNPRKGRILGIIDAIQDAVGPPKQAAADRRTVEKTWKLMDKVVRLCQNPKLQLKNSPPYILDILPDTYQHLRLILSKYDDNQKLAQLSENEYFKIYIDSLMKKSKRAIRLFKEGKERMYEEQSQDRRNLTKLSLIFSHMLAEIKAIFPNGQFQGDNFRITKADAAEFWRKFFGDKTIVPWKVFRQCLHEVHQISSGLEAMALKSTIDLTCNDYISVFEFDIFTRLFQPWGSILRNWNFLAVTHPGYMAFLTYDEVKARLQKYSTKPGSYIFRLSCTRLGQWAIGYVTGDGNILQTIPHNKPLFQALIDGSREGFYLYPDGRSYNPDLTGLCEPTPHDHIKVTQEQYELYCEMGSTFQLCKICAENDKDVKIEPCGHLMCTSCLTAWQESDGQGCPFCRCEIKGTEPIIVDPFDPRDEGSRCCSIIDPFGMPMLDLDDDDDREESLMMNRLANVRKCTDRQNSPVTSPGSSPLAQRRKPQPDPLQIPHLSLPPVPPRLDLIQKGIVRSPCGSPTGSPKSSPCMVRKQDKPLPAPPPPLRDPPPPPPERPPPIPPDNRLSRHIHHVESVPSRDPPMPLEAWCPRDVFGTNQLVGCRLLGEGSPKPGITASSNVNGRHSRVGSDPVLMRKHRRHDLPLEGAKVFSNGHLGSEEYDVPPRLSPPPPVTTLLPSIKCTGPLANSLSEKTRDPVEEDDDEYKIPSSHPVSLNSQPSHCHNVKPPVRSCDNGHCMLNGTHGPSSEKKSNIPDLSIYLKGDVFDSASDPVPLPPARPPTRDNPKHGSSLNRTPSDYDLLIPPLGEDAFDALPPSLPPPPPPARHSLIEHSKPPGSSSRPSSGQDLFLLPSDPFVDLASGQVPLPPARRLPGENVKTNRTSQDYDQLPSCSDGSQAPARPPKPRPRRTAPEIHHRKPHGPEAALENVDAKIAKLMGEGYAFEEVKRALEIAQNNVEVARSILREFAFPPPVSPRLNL
pIC50: −log10 of the molar value.
READOUT: pIC50

Here is how some compounds turned out for pIC50.
Give pIC50 for the following compound: "COC[C@@H]1CCCN1Cc1cc(C(F)(F)F)c2cn(-c3cccc([C@@H](c4nncn4C)C4CCC4)c3)c(=O)n2c1" > 7.00

Give pIC50 for the following compound: C[C@H]1CCCN(Cc2cc(C(F)(F)F)c3cn(-c4cccc([C@@H](c5nncn5C)C5COC5)c4)c(=O)n3c2)C1 (single isomer, unassigned) 6.00 to 6.52

***
Give pIC50 for the following compound: C[C@H]1CCCN(Cc2cc(C(F)(F)F)c3cn(-c4cc(C#N)cc([C@@H](c5nncn5C)C5CCC5)c4)c(=O)n3c2)C1 (single isomer, unassigned) > 7.00
